The measurements presented in this section are drawn from ChEMBL document CHEMBL1201862.

Test system: SF-295
Test: NCI tumour cell line growth inhibition, 48 h
Active and inactive are the calls of the source. Cut-off read from the data, not from the text of the source: active = GI50 up to about 1.1 µM and inactive = higher.
value.kind: GI50

compound: COc1cc2c(cc1OC)C1=Cc3ccc(OC)c(OC)c3C(C#N)N1CC2 (configuration not stated)
GI50: 37.1 µM (inactive)
--
compound: [N-]=[N+]=NC1CC(n2ccc(N)nc2=O)OC1COP(=O)(O)OP(=O)(O)OP(=O)(O)O (configuration not stated)
GI50: > 100 µM (inactive)
--
compound: CC(C)(C)C1CCC2c3c([nH]c4ccccc34)C3C(=O)N(c4cc(Cl)ccc4Cl)C(=O)C3C2C1 (configuration not stated)
GI50: > 100 µM (inactive)
--
compound: OCC1OC(O[C@H]2CN3[C@H](O)[C@@H](O)[C@H](O)[C@H]3C2O)C(O)C(O)C1O (some centres not stated)
GI50: > 100 µM (inactive)

Q: Any idea what its GI50 is? The compound is CCCCCCCCCCCCCCCCCCNc1ccn(C2OC(COP(=O)(O)OCC3CCC(n4cnc5c(=O)[nH]cnc54)O3)C(O)C2O)c(=O)n1 (configuration not stated)
Result: > 100 µM (inactive)

Q: Now give it for `O=C(/C=C/c1ccc(-c2ccccc2)cc1)c1ccccc1` too.
Result: 30.2 µM (inactive)

Q: Now give it for `CCOC(=O)NN(C(=O)OCC)C(C(=O)C1=CCCCC1)N(NC(=O)OCC)C(=O)OCC` too.
Result: > 100 µM (inactive)

====

System: OVCAR-8
Assay: NCI tumour cell line growth inhibition, 48 h
Calls of active or inactive are those of the source. No stated cut-off is given here; in the data, active = GI50 up to about 1.1 µM and inactive = higher.
value.kind: GI50

The following compounds have reported results that may help.
compound: Fc1cc(-c2ncc(Cl)cc2Cl)c2cccccc1-2
measurement.target: OVCAR-8
GI50: > 100 µM (inactive)
//
compound: Cc1ccc2c(=O)cc(-c3cccc(F)c3)[nH]c2n1
measurement.target: OVCAR-8
GI50: 0.0638 µM (active)
//
compound: O=[N+]([O-])c1cccc(C2SCc3nc4ccccc4n32)c1 (stereo not given)
measurement.target: OVCAR-8
GI50: > 100 µM (inactive)

Q: Any idea what its GI50 is? The compound is `C[C@@]1(O)C[C@@H](N2C(=O)O[C@@H](c3ccccc3)[C@H]2c2ccccc2)[C@@H]1COCc1ccccc1`
Result: 17.8 µM (inactive)

Q: Now give it for Cc1nn(C(=O)c2ccc(Cl)cc2)c2c1C(c1ccco1)SC(=N)N2 (stereo not given) too.
Result: > 10 µM (inactive)

Q: Now give it for CC1=C(C(=O)O)N2C(=O)[C@@H](NC(=O)C(c3ccccc3)N3CSC(=S)N(C(C)C)C3)C2SC1 (stereo not given in full) too.
Result: > 100 µM (inactive)

Q: Now give it for COc1ccc(-c2c3c(n(C4OC(CO)C(O)C(O)C4O)c(=S)c2C#N)CC(C)(C)CC3=O)cc1 (stereo not given) too.
Result: > 100 µM (inactive)

Q: Now give it for `CN(C(=O)c1ccncc1)c1ccccc1` too.
Result: > 100 µM (inactive)

====

Tested on: PC-3
Assay: NCI tumour cell line growth inhibition, 48 h
Calls of active or inactive are those of the source. Cut-off read from the data, not from the text of the source: active = GI50 up to about 1.1 µM and inactive = higher.
Write down one outcome, taken from active, inactive

compound: [B].c1ccc([Si](OCCN2CC2)(c2ccccc2)c2ccccc2)cc1
group: inactive

Q: Call for entry `CC1=CCC[C@H]2[C@](C)(CC3=CC(=O)C(Sc4ccccc4)=CC3=O)[C@@H](C)CC[C@]12C` :
Result: inactive

Q: Now give it for `O=C(NC12CC3CC(CC(C3)C1)C2)n1cnc2cncnc21` too.
Result: inactive

Q: Now give it for `CCOC(=O)NN(C(=O)OCC)C(C(=O)C1=CCCCC1)N(NC(=O)OCC)C(=O)OCC` too.
Result: inactive

Q: Now give it for Cc1cccc2c1Oc1ncccc1C2NC(=O)CN(C)C (stereo unspecified) too.
Result: inactive

Q: Now give it for CCCCC1C=Cn2c(=O)oc3c(OC(C)C)c(OC(C)C)c(O)c1c32 (stereo unspecified) too.
Result: inactive

Q: Now give it for `COc1cc([C@H]2c3cc(O)c(OC)cc3C[C@]3(O)[C@@H]2CO[C@@H]3O)ccc1O` too.
Result: inactive

Q: Now give it for `Cc1cc(N(CCC#N)CCC#N)ccc1C(/N=N\c1ccc(C(=O)O)cc1)=N\NC(=O)c1cc(Cl)ccc1O` too.
Result: inactive

Q: Now give it for `S=c1oc(CCCCCCCCc2nn(CNc3ccccc3)c(=S)o2)nn1CNc1ccccc1` too.
Result: inactive
